The values you see were collected from ChEMBL document CHEMBL5608113.

Tested on: Colon cancer organoid
Protocol: Targeting of F14 CAF-induced therapy resistance in O23 CRC organoid-stroma co-culture. Cell viability is reported with Gefitinib.
Format: functional, Homo sapiens
Test conditions: Homo sapiens, Concentration 1 uM; read-out: Cell Viability
Reported property: viability at 1 µM (%)
Give bare numbers, in %.

Recorded viability at 1 µM, per entry:
{"Smiles str": "Cc1c(NC(=O)c2cc(C(N)=O)nc3cc(F)ccc23)c(C(F)(F)F)nn1Cc1ccc(C(C)(C)C)cc1", "viability at 1 µM / %": 43.1}
{"Smiles str": "COc1ccc2cc(OCC3(C(=O)O)CN(C(=O)c4ccc(F)cc4)C3)ccc2c1", "viability at 1 µM / %": 40.3}
{"Smiles str": "CCOC(=O)c1cc2cc(-c3cc(C(=O)NCc4ccc(C(=O)O)cc4)nn3C)ccc2[nH]1", "viability at 1 µM / %": 77.1}

Turning to the following molecule.
Lookup result for CN1C(=O)[C@@H](N2CCc3cn(Cc4ccccc4)nc3C2=O)COc2ccccc21 ; measured viability at 1 µM: 56

----------
Give measured viability at 10 µM for each item. Keep answers brief.
Tested on: Colon cancer organoid
Protocol: Targeting of F14 CAF-induced therapy resistance in O14 CRC organoid-stroma co-culture. Cell viability is reported without Gefitinib.
Assay type: functional, Homo sapiens
Test conditions: Homo sapiens, Concentration 10 uM; read-out: Cell Viability
Square brackets hold non-standard residues; d marks the D form. Peptide text beside a SMILES is read from it. Arg(Me) = CNC(=N)NCCC[C@H](N)C(=O)O; d3Pal = N[C@H](Cc1cccnc1)C(=O)O; azaGly = NNC(=O)O
Answers are plain numbers, in %.

{"Compound": "CNC(=N)NCCC[C@H](NC(=O)[C@H](CC(C)C)NC(=O)NNC(=O)[C@H](Cc1ccccc1)NC(=O)[C@H](CO)NC(=O)[C@H](CC(N)=O)NC(=O)[C@@H](Cc1cccnc1)NC(=O)[C@H](N)Cc1ccc(O)cc1)C(=O)NCC(N)=O [KISS1-543] (H-[dY][d3Pal]NSF[azaGly]L[Arg(Me)]G-NH2)", "viability at 10 µM, %": 103}

Dear reader, for each entry below, please note its viability at 10 µM.
1. CC(=O)N1CCC(c2ccc(C(=O)NC(=N)N)cc2C(F)(F)F)CC1 [BI 9627]
2. CN([C@@H]1CCc2c(CC(=O)O)c3ccccc3n2C1)S(=O)(=O)c1ccc(F)cc1 [MK-7246]
3. CCOC(=O)CCNc1cc(N2CCc3ccccc3CC2)nc(-c2cccnc2)n1

a:
1: 102; 2: 88.6; 3: 60.1

----------
System: Colon cancer organoid
Protocol: Targeting of F14 CAF-induced therapy resistance in O23 CRC organoid-stroma co-culture. Cell viability is reported with Gefitinib.
Format: functional, Homo sapiens
Test conditions: Homo sapiens, Concentration 10 uM; read-out: Cell Viability
Reported property: viability at 10 µM (%)
Answers are plain numbers, in %.

Recorded viability at 10 µM, per entry:
{"Molecule": "CC(=O)Nc1c(F)cc(C(=O)N[C@H]2CC[C@H](O)CC2)cc1O[C@@H](C)c1ccccc1 [GSK046]", "Reported property": "viability at 10 µM", "Reading unit": "%", "Reported": 55.8}
{"Molecule": "O=C(O)CNC(=O)c1c(O)c2ccccc2n(Cc2ccccc2)c1=O", "Reported property": "viability at 10 µM", "Reading unit": "%", "Reported": 67.5}
{"Molecule": "COc1cc(OC)cc(-c2noc(N3CCN(C)C4(CCN(c5ccccc5)CC4)C3)n2)c1", "Reported property": "viability at 10 µM", "Reading unit": "%", "Reported": 65.9}
{"Molecule": "Cc1c(N2CCNCC2)nc2ccc(Br)cc2c1C(=O)NC[C@H](CCC(=O)O)c1ccccc1Cl [BAY-403]", "Reported property": "viability at 10 µM", "Reading unit": "%", "Reported": 48}

Dear reader, for each entry below, please note its viability at 10 µM.
1. O=C(N[C@H]1CCCCC/C=C\C2C[C@@]2(C(=O)O)NC(=O)[C@@H]2C[C@@H](Oc3ccncc3)CN2C1=O)OC1CCCC1 (stereo not given in full) [BI 1675]
2. CCCCNc1ncc(-c2ccc(CN3CCOCC3)cn2)c(N[C@H]2CC[C@H](O)CC2)n1
3. COc1ccccc1C(=O)Nc1cc2c(cc1N1CCCC1)n(C)c(=O)n2C
4. CCC(F)(F)c1cc(N2CCC(S(C)(=O)=O)CC2)nc2sc(C(N)=O)c(N)c12 [BI-605906]
5. O=C1c2ccc(Nc3ccc(F)cc3F)cc2CCc2ccc(OC[C@H](O)CO)cc21 [Skepinone-L]
6. CN(C)C(=O)/C(C#N)=C/c1ccc(-c2nc3cnc4c(ccn4C)c3n2C2CCCCC2)o1
7. CO[C@@H](C)c1c(Nc2ccc([C@H](N(C)C(=O)C3CCS(=O)(=O)CC3)C(F)(F)F)cc2)cnc2cc(Cl)nn12 [NVS-MALT1]

a:
51
12
79
53.3
72.8
53.6
60.9

Dear reader, for each entry below, please note its viability at 10 µM.
1. CCCCN(CCCC)C(=O)CN1C[C@@H](c2cc(OC)c3c(c2)OCO3)[C@H](C(=O)O)[C@H]1CC(C)(C)CCC [A-545]
2. Cn1cncc1[C@@](O)(COc1ccc(C#N)cc1-c1ccc(OC(F)(F)F)cc1)c1ccc(C#N)cc1 [A-108]
3. CC(C)[C@H](C(=O)Nc1ccc(C(=O)NO)cc1)c1ccccc1 [AR-42]
4. CC(=O)C1=C(C)N(c2cccc(C(F)(F)F)c2)C(=O)N[C@@H]1c1ccc(C#N)nc1 [BAY-678]

a:
47
69.3
263
61.8
